Hello, the source for this data is patent US20240335443A1, in case you need it.

Task for the reader: assign each of the following compounds its reported IC50.
# System Tested: N-terminal His-tagged TYK2 pseudokinase domain (Homo sapiens)
# Construct: the N-terminal His-tagged TYK2 pseudokinase domain; His (N); purchased Pharmaron
# Sequence (P29597 589-875 limits assumed): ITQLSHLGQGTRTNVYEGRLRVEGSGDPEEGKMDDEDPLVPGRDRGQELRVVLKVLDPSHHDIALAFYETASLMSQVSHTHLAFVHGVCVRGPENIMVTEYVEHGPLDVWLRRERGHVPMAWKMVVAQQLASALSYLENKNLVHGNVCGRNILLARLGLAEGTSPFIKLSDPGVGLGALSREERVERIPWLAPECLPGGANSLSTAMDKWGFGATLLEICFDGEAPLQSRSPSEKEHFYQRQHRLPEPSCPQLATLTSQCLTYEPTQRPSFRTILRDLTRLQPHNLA
# Test Description: TYK2 JH2 domain SPA binding assay
# Condition Context: displacement of H3 probe (20 nM), 30 min room temperature; class symbols

Ask: For the compound [2H]C([2H])([2H])Nc1cc(Nc2cccn(C3CCCC4(COC4)C3)c2=O)nn2c(C(=O)N[C@@H]3C[C@H]4CCO[C@H]43)cnc12 (single isomer, unassigned) [Compound 68b] , give its reported IC50.
Reply: 10 to 100 nM

Ask: For the compound CNc1cc(Nc2cccn([C@H]3C[C@H](OC)C3)c2=O)nn2c(C(=O)N[C@@H]3C[C@H]4CCO[C@H]43)cnc12 [Compound 82] , give its reported IC50.
Reply: 10 to 100 nM

Ask: For the compound [2H]C([2H])([2H])Nc1cc(Nc2cccn(C3CC4OCCC43)c2=O)nn2c(C(=O)N[C@@H]3C[C@@H]3F)cnc12 (single isomer, unassigned) [Compound 101b] , give its reported IC50.
Reply: 10 to 100 nM

Ask: For the compound CNc1cc(Nc2cccn([C@H]3C[C@H](OC)C3)c2=O)nn2c(C(=O)NC3CCC4CCOC43)cnc12 (single isomer, unassigned) [Compound 88b] , give its reported IC50.
Reply: 100 to 1000 nM

Ask: For the compound CNc1cc(Nc2cccn([C@H]3CCCOC3)c2=O)nn2c(C(=O)N[C@@H]3C[C@H]4CCO[C@H]43)cnc12 [Compound 65] , give its reported IC50.
Reply: 10 to 100 nM

Ask: For the compound CNc1cc(Nc2cccc3c2OCCC3)nc2c(C(=O)N[C@@H]3C[C@@H]4CCO[C@@H]43)cnn12 (racemic) [Compound 26] , give its reported IC50.
Reply: 10 to 100 nM
